Values from ChEMBL document CHEMBL3879915

measuredOn: PRMT5/MEP50 complex (Homo sapiens, UniProt O14744)
Sequence (O14744 whole entry, the tested form may be a part): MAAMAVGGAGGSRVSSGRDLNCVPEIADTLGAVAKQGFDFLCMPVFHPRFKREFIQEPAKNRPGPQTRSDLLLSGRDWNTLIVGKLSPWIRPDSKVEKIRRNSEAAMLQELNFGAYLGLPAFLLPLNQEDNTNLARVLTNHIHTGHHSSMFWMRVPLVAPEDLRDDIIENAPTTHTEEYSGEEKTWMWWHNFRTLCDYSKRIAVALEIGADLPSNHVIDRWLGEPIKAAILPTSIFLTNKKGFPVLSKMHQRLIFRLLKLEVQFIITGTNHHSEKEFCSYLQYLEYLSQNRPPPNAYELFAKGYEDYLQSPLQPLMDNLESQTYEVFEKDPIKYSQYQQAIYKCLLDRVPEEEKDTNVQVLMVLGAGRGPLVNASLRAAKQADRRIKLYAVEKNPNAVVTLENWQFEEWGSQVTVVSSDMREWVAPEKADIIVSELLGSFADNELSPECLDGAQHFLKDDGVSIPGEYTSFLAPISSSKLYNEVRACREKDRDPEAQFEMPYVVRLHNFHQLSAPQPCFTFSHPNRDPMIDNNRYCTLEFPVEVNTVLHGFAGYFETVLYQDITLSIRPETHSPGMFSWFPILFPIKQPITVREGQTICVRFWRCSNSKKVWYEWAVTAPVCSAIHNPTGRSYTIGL
Sequence (Q9BQA1 whole entry, further chain, the tested form may be a part): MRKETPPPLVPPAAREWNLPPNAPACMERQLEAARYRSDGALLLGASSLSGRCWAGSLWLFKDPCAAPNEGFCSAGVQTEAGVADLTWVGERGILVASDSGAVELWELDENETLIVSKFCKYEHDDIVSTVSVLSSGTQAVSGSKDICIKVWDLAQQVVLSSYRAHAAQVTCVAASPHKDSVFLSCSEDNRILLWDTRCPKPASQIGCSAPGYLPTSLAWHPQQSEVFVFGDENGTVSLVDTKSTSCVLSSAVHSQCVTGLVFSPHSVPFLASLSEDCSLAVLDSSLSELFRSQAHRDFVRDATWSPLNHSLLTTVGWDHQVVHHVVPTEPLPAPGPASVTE
assayMethodText: Inhibition of recombinant human fetal brain FLAG-tagged PRMT5/full length human testis 6His-tagged MEP50 expressed in baculovirus infected insect Sf9 cells using human histone H4 (1 to 15 residues) as substrate preincubated for 30 mins followed by [3H]-SAM addition
Listing: IC50 of selected compounds

Study these solved cases before continuing.
Cn1cnc2ccc(-c3cccc(OCC(O)CN4CCc5ccccc5C4)c3)nc21 (configuration not stated); < 100 nM
COc1cc(Cl)cc(-c2cccc(OCC(O)CN3CCc4ccccc4C3)c2)c1 (configuration not stated); 101 to 1000 nM
O=C(NCC(O)CN1CCc2ccccc2C1)c1cc(NC2CCOCC2)ccc1F (configuration not stated); 101 to 1000 nM
OC(COc1cccc(C2CCCCC2)c1)CN1CCc2ccccc2C1 (configuration not stated); 1000 to 10000 nM
OC(COCC1CC1)CN1CCc2ccccc2C1 (configuration not stated); 1000 to 10000 nM

compound COC(COc1cccc(CNC2CCCC2)c1)CN1CCc2ccccc2C1 (configuration not stated) , IC50 observed: 1000 to 10000 nM

compound COc1ccc2c(c1)CN(CC(O)COc1cccc(-c3ccc4ncn(C)c4c3)c1)CC2 (configuration not stated) , IC50 observed: 10000 to 40000 nM

---

measuredOn: PRMT5/MEP50 complex (Homo sapiens, UniProt O14744)
assayMethodText: Inhibition of recombinant human fetal brain FLAG-tagged PRMT5/full length human testis 6His-tagged MEP50 expressed in baculovirus infected insect Sf9 cells using human histone H4 (1 to 15 residues) as substrate preincubated for 30 mins followed by [3H]-SAM addition
pIC50: −log10 of the molar value.
assayEndpoint: pIC50

Consider the worked cases shown below.
OC(COCc1cccnc1)CN1CCc2ccccc2C1 (stereo not given); 4.40 to 5.00
CN1CCc2cccc(OCC(=O)NCC(O)CN3CCc4ccccc4C3)c2C1 (stereo not given); 6.00 to 7.00
OC(COCc1cc(-c2ccc(Cl)cc2)no1)CN1CCc2ccccc2C1 (stereo not given); 6.00 to 7.00
CN(CC(O)CN1CCc2ccccc2C1)C(=O)CCc1ccccc1 (stereo not given); 5.00 to 6.00
OC(COc1cccc(-c2ccc3nn[nH]c3c2)c1)CN1CCc2ccccc2C1 (stereo not given); 6.00 to 7.00
OC(COc1ccc(-n2cncn2)cc1)CN1CCc2ccccc2C1 (stereo not given); 5.00 to 6.00
OC(COc1cccc(-c2cc(C(F)(F)F)ccc2Cl)c1)CN1CCc2ccccc2C1 (stereo not given); 6.00 to 7.00
OC(COC1CCN(c2ccccc2)C1)CN1CCc2ccccc2C1 (stereo not given); 5.00 to 6.00

Case O=C(COc1ccccc1-c1ncc[nH]1)NCC(O)CN1CCc2ccccc2C1 (stereo not given) , PRMT5/MEP50 complex (Homo sapiens, UniProt O14744), pIC50 recorded as 6.00 to 7.00

Hey, PRMT5/MEP50 complex (Homo sapiens, UniProt O14744) data for COc1cccc2c1CCN(CC(O)COc1cccc(CNC3CCCC3)c1)C2 (stereo not given) : pIC50 came out at < 4.40

Entry CN1CCC(n2ncc3cc(OCC(=O)NCC(O)CN4CCc5ccccc5C4)ccc32)C1 (stereo not given) under PRMT5/MEP50 complex (Homo sapiens, UniProt O14744) had pIC50 of > 7.00

The recorded pIC50 with PRMT5/MEP50 complex (Homo sapiens, UniProt O14744) for CC(Oc1cccc2cccnc12)C(=O)NCC(O)CN1CCc2ccccc2C1 (stereo not given) was > 7.00

With PRMT5/MEP50 complex (Homo sapiens, UniProt O14744) as the test system, O=C(COc1ccccc1C1CCCNC1)NCC(O)CN1CCc2ccccc2C1 (stereo not given) showed pIC50 of 6.00 to 7.00

Sample OC(COc1cccc(-c2cnccn2)c1)CN1CCc2ccccc2C1 (stereo not given) , system: PRMT5/MEP50 complex (Homo sapiens, UniProt O14744). Its pIC50 is 5.00 to 6.00

Tested system PRMT5/MEP50 complex (Homo sapiens, UniProt O14744); pIC50 recorded for CN(C)c1ccc2cccc(OCC(=O)NC[C@H](O)CN3CCc4ccccc4C3)c2n1 was 6.00 to 7.00

Entry OC(COc1cccc(OCc2ccccc2)c1)CN1CCc2ccccc2C1 (stereo not given) under PRMT5/MEP50 complex (Homo sapiens, UniProt O14744) had pIC50 of 5.00 to 6.00

Summary line: Cn1cnc2cnc(-c3cccc(OCC(O)CN4CCc5ccccc5C4)c3)nc21 (stereo not given) , PRMT5/MEP50 complex (Homo sapiens, UniProt O14744), reported pIC50 = 6.00 to 7.00

Value (pIC50, PRMT5/MEP50 complex (Homo sapiens, UniProt O14744)) for record COc1ccc(Cn2cnc3ccc(-c4cccc(OCC(O)CN5CCc6ccccc6C5)c4)cc32)cc1 (stereo not given) = 6.00 to 7.00

GET /values?item= OC(CNc1cc(-c2ccc3ncn(C4COC4)c3c2)ccn1)CN1CCc2ccccc2C1 (stereo not given) &system= PRMT5/MEP50 complex (Homo sapiens, UniProt O14744) returns pIC50: > 7.00

Reported PRMT5/MEP50 complex (Homo sapiens, UniProt O14744) pIC50 for item CN(C(=O)c1cccnc1)c1cccc(OCC(O)CN2CCc3ccccc3C2)c1 (stereo not given) was 5.00 to 6.00

Lab note: compound OC(COc1cccc(-c2ccncc2)c1)CN1CCc2ccccc2C1 (stereo not given) tested on PRMT5/MEP50 complex (Homo sapiens, UniProt O14744); recorded pIC50 was 5.00 to 6.00

Entry Cn1cnc2ccc(-c3ccnc(NCC(O)CN4CCc5ccccc5C4)n3)cc21 (stereo not given) : pIC50 on PRMT5/MEP50 complex (Homo sapiens, UniProt O14744) = 6.00 to 7.00

Form field pIC50 for item CC(=O)c1cccc(-c2cccc(OCC(O)CN3CCc4ccccc4C3)c2)c1 (stereo not given) on PRMT5/MEP50 complex (Homo sapiens, UniProt O14744): 6.00 to 7.00

Test item CC1(C)CC(Nc2cccc(C(=O)NCC(O)CN3CCc4ccccc4C3)c2)CCO1 (stereo not given) ; PRMT5/MEP50 complex (Homo sapiens, UniProt O14744); reported pIC50 was 6.00 to 7.00

For the compound CN1CC(n2cnc3ccc(-c4ccnc(NCC(O)CN5CCc6ccccc6C5)c4)cc32)C1 (stereo not given) , the measured pIC50 on PRMT5/MEP50 complex (Homo sapiens, UniProt O14744) was > 7.00

---

measuredOn: PRMT5/MEP50 complex (Homo sapiens)
assayMethodText: Inhibition of recombinant human fetal brain FLAG-tagged PRMT5/full length human testis 6His-tagged MEP50 expressed in baculovirus infected insect Sf9 cells using human histone H4 (1 to 15 residues) as substrate preincubated for 30 mins followed by [3H]-SAM addition
pIC50: −log10 of the molar value.
pIC50: recorded values

CN1CCN(c2ccc(-c3cccc(OCC(O)CN4CCc5ccccc5C4)c3)cn2)CC1 (stereo not given); 6.00 to 7.00
COC(=O)c1cncc(-c2cccc(OCC(O)CN3CCc4ccccc4C3)c2)c1 (stereo not given); 5.00 to 6.00
OC(COc1cccc(-c2cnc3ccccc3c2)c1)CN1CCc2ccccc2C1 (stereo not given); 6.00 to 7.00
O=C(Nc1cccc(OCC(O)CN2CCc3ccccc3C2)c1)c1cccnc1 (stereo not given); 5.00 to 6.00
COc1cccc(OCC(=O)NCC(O)CN2CCc3ccccc3C2)c1 (stereo not given); > 7.00

pIC50 for CC(Oc1ccccc1S(N)(=O)=O)C(=O)NCC(O)CN1CCc2ccccc2C1 (stereo not given) is < 4.30

Just so you know, measured pIC50 for O=C(Cc1ccncc1)NCC(O)CN1CCc2ccccc2C1 (stereo not given) came out at 4.30 to 5.00

O=C(COc1cccc2c1CCCN2Cc1ccccc1)NCC(O)CN1CCc2ccccc2C1 (stereo not given) has a reported pIC50 of > 7.00

// recorded pIC50 for OC(COC1CCNCC1)CN1CCc2ccccc2C1 (stereo not given) : < 4.40

Entry O=C(NC1CCOCC1)c1cccc(NCC(O)CN2CCc3ccccc3C2)c1 (stereo not given) , pIC50 reported as 4.40 to 5.00

---

measuredOn: Protein arginine N-methyltransferase 5 (Homo sapiens)
Sequence (O14744 whole entry): as the sequence (O14744 whole entry, the tested form may be a part) above
assayMethodText: Inhibition of PRMT5 in human Z138 cells assessed as decrease in di-methyl arginine levels after 96 hrs by Western blot method
pEC50: −log10 of the molar value.
assayEndpoint: pEC50

CN(CC(O)CN1CCc2ccccc2C1)c1cccc(CNC2CCCC2)c1 (stereo not given); 6.00 to 7.00
CN1CCN(c2ccccc2OCC(=O)NC[C@@H](O)CN2CCc3ccccc3C2)CC1; 5.00 to 6.00

The reported value for O=C(COc1ccc2c(cnn2C2CCNC2)c1)NCC(O)CN1CCc2ccccc2C1 (stereo not given) in terms of pEC50 is 6.00 to 7.00

Lab note: measured pEC50 of CC(=O)Nc1cccc(OCC(=O)NCC(O)CN2CCc3ccccc3C2)c1 (stereo not given) was 6.00 to 7.00

Kindly note the recorded pEC50 for O=C(NCC(O)CN1CCc2ccccc2C1)c1cccnc1 (stereo not given) , which is 6.00 to 7.00

So for OC(COc1cccc(-c2cccc(F)c2F)c1)CN1CCc2ccccc2C1 (stereo not given) , the logged pEC50 turned out to be 4.40 to 5.00

Lookup result for O=C(NCC(O)CN1CCc2ccccc2C1)c1cccc(-c2ccncc2)c1 (stereo not given) ; measured pEC50: > 7.00

The compound listed as O[C@H](COc1cccc(-c2cccc3cccnc23)c1)CN1CCc2ccccc2C1 shows pEC50 equal to 5.00 to 6.00

Sample CN(C)CCOc1ccccc1OCC(=O)NC[C@@H](O)CN1CCc2ccccc2C1 ; pEC50 observed: 5.00 to 6.00

pEC50 for O=C(COc1ccccc1S(=O)(=O)N1CCCC1)NCC(O)CN1CCc2ccccc2C1 (stereo not given) is > 7.00

Sample Cn1cnc2cc(-c3cccc(OCC(O)CN4CCc5ccccc5C4)c3)ccc21 (stereo not given) ; pEC50 observed: 6.00 to 7.00

Entry under test: O=C(COc1ccccc1)NC[C@H](O)CN1CCc2ccccc2C1 . Its pEC50 was 6.00 to 7.00

So, O[C@@H](COc1cccc(-c2cccc3cccnc23)c1)CN1CCc2ccccc2C1 ? Its pEC50 was 6.00 to 7.00

Recorded pEC50 (compound O=C(COc1cccc2c1CCNC2)NCC(O)CN1CCc2ccccc2C1 (stereo not given) ): 6.00 to 7.00

The compound identified as Cn1cnc2cc(-c3cc(NCC(O)CN4CCc5ccccc5C4)n[nH]3)ccc21 (stereo not given) registered its pEC50 at 6.00 to 7.00

Kindly note the recorded pEC50 for CN1CCC(n2cnc3ccc(-c4ccnc(NCC(O)CN5CCc6ccccc6C5)c4)cc32)CC1 (stereo not given) , which is 6.00 to 7.00

Recorded pEC50 (compound CNC(=O)c1cccc(-c2cccc(OCC(O)CN3CCc4ccccc4C3)c2)c1 (stereo not given) ): 5.00 to 6.00

# pEC50 of N#Cc1ccccc1-c1cccc(OCC(O)CN2CCc3ccccc3C2)c1 (stereo not given) = 5.00 to 6.00
